Values compiled from paper PMC12040169.

test: in vitro; details: human, hela cells, % viability
Criterion: viability at 28.5 h, 10 µM strictly less than 90%. Met: MET. Not met: NOT MET.

INSERT INTO results (molecule, class) VALUES
  ('COc1ccccc1CN(CC1CCNCC1)C(=O)NC(c1ccccc1)c1ccccc1 [CBK049741]', 'NOT MET'),
  ('CN1CCN(CCP(=O)(c2ccccc2)c2ccccc2)CC1 [CBK020260]', 'NOT MET'),
  ('Cc1cccnc1NC(=O)c1ccc(NC(C)C)c([N+](=O)[O-])c1 [CBK269494]', 'MET'),
  ('COc1ccc(CNC(=O)c2cc(S(=O)(=O)N(C)C)cs2)cc1 [CBK307579]', 'MET'),
  ('Cc1ccccc1C(NC(=O)C1CCN(C(=O)NCc2ccccc2)CC1)c1ncccc1C (stereo not drawn) [CBK060398]', 'NOT MET'),
  ('CC(C)OCC(O)Cn1c(NC2CCCCC2)nc2c1c(=O)[nH]c(=O)n2C (stereo not drawn) [CBK140893]', 'NOT MET');

----------
experiment: in vitro; conditions: human, hela cells, % viability
The reader will find reported viability at 28.5 h, 10 µM values listed item by item below.
observation.type: viability at 28.5 h, 10 µM

INSERT INTO assay_data (compound, observation_type, value_measured) VALUES
  ('COc1ccc(/N=C(/Nc2cccc(C(F)(F)F)c2)SC)cc1 [CBK018896I]', 'viability at 28.5 h, 10 µM', '98.4%'),
  ('O=[N+]([O-])c1cnc(NS(=O)(=O)c2cccc(C(F)(F)F)c2)s1 [CBK067533]', 'viability at 28.5 h, 10 µM', '104%'),
  ('O=C(O)c1ccc(Cl)c(-c2ccc(/C=N\Nc3ccc([N+](=O)[O-])cn3)o2)c1 [CBK263431]', 'viability at 28.5 h, 10 µM', '93.9%'),
  ('COc1cc(OC)c(NS(=O)(=O)c2ccc(C(=O)O)cc2)cc1Cl [CBK296620]', 'viability at 28.5 h, 10 µM', '97.5%'),
  ('O=C(CSc1nc2ccccc2c2nc3ccccc3n12)Nc1cccc(Cl)c1 [CBK267872]', 'viability at 28.5 h, 10 µM', '94.2%'),
  ('O=C1/C(=C\Nc2cccc3cccnc23)Sc2ccccc21 [CBK261647]', 'viability at 28.5 h, 10 µM', '93.8%'),
  ('O=C(NCC1CCCCC1)C1(Cc2ccc(-c3ccncc3)cc2)CCOCC1 [CBK285564]', 'viability at 28.5 h, 10 µM', '121%');

----------
The reader will find reported viability at 28.5 h, 10 µM values listed item by item below.
assay: in vitro; settings: human, hela cells, % viability
observation.type: viability at 28.5 h, 10 µM (%)

INSERT INTO results (molecule, value_measured) VALUES
  ('CC(=O)NCCc1nc2ccc(NC(=O)Cn3nc(C)c4ccccc4c3=O)cc2n1C [CBK268249]', 111),
  ('C=C(C)Cn1c(=O)nc(N)c2c3c(sc21)CCC3 [CBK287986]', 88.2),
  ('COc1ccc(-c2ncc(Oc3cccc(NC(C)=O)c3)nc2N)c(OC)c1 [CBK145087]', 113),
  ('Cc1cccc(C)c1N(CC(=O)O)S(C)(=O)=O [CBK262329]', 102);

----------
assay: in vitro; conditions: human, hela cells, % viability
The reader will find reported viability at 28.5 h, 10 µM values listed item by item below.
observation.type: viability at 28.5 h, 10 µM (%)

INSERT INTO results (molecule, value_unit, value_measured) VALUES
  ('OC(CN1CCN(Cc2ccc3c(c2)OCO3)CC1)c1ccccc1 (stereo not shown) [CBK074759]', '%', 82.8),
  ('CCn1cc(S(=O)(=O)NCc2ccccc2OC)cn1 [CBK270304]', '%', 98.1),
  ('COc1ccc(C[C@@]23CC[C@H](NC(=O)NCCc4ccccc4)C[C@@H]2N(C)CC3)cc1 [CBK024127]', '%', 95.2),
  ('CCOC(=O)C1CCCN(Cc2nc(-c3ccc(F)cc3F)oc2C)C1 (stereo not shown) [CBK306749]', '%', 94.3);

----------
test: in vitro; conditions: human, hela cells, % viability
observation.type: viability at 28.5 h, 10 µM (%)

INSERT INTO assay_data (compound, value_measured) VALUES
  ('CCOC(=O)c1c(NC(=O)c2cc3ccccc3o2)sc2c1CCCC2', 84),
  ('O=C(CN(c1ccccc1)S(=O)(=O)c1ccccc1[N+](=O)[O-])Nc1ccc(C(F)(F)F)cc1', 64.6),
  ('Nc1ncc(-c2ccc(C(=O)N3CCOCC3)cc2)cc1C(=O)NCc1ccc(Cl)c(Cl)c1', 109),
  ('CCOC(=O)CNC(=O)Nc1cc2ccccc2c(Br)n1', 92.5),
  ('Cc1ccc(CNC(=O)C2(c3ccccc3)CCCC2)cc1F', 85.6),
  ('CCCc1cc(C(=O)N(C)CCOc2ccccc2)[nH]n1', 91.7),
  ('Cc1cccn2c(=O)cc(CN3CCc4c(nc(C5CC5)n4C)C3)nc12', 99.2),
  ('Cc1ccc(S(=O)(=O)Nc2sccc2C(=O)O)cc1[N+](=O)[O-]', 102),
  ('O=C(Cc1c[nH]c2ccccc12)N1CCC2(CCN(C(=O)c3cccnc3)C2)C1 (stereo not drawn)', 80.6),
  ('O=C(Nc1cccc2nsnc12)c1ccc(-c2ccc(Br)cc2)o1', 95.9),
  ('Cc1ccn2cc(-c3cc4c(ccc5ccccc54)oc3=O)nc2c1', 100),
  ('CC(C)(N)CC(=O)N1CCN(c2ncccn2)CC1', 91.3),
  ('CCN(Cc1ccncc1)C(=O)NCCc1ccc(OC)cc1', 94.6),
  ('c1cc(-c2cnn(-c3ccc4c(c3)CCO4)n2)cs1', 93.4),
  ('O=C(CN1C2CCC1CC(O)(c1ccccc1F)C2)NCC1CC1 (stereo not drawn)', 93.4);

----------
assay: in vitro; settings: human, hela cells, % viability
observation.type: viability at 28.5 h, 10 µM (%)

INSERT INTO measurements (compound, value_measured) VALUES
  ('O=C(Nc1ccc(N2CCNCC2)nc1)c1cnccn1 [CBK029436T]', 126),
  ('CN1CCN(C(=O)c2cnc3cc(C(F)(F)F)ccc3c2O)CC1', 105),
  ('Cc1nn(S(=O)(=O)c2cccc3nsnc23)c(C)c1Cl', 92.6),
  ('Cc1nc2c3c(sc2c(=O)[nH]1)NC(=O)CC3c1ccccc1 (stereo not shown)', 93.1),
  ('Cc1ccc(C)c(NC(=O)CN(Cc2ccc(Cl)c(Cl)c2)S(=O)(=O)c2ccccc2)c1', 107),
  ('COc1ccc(C(=O)N2CC[C@H]3NC(=O)N(c4ccc(F)cc4)C(=O)[C@H]32)cc1', 86.9),
  ('O=C(OCCc1ccncc1)N1Cc2ccccc2C1', 95.5),
  ('OCCN(CCO)c1nc(-c2ccccc2)nc2sc(-c3ccccc3)cc12', 105),
  ('O=C1CCC(=O)N1CCOc1nccnc1N1CCN(Cc2ccccc2F)CC1', 97.8),
  ('O=c1[nH]c(CN2CCCCCCC2)nc2ccccc12', 117),
  ('C=Cn1cc(CN2CCCC(c3cc4cccnc4[nH]3)C2)c(C)n1 (stereo not shown)', 115),
  ('Cc1occc1-c1nnc(SCC(=O)Nc2ccccc2)n1C', 84.9),
  ('Cc1ccc(S(=O)(=O)N(CC(=O)Nc2ccccc2C)Cc2ccc(Cl)c(Cl)c2)cc1', 93.3),
  ('CCC1CCCCN1C(=O)c1cc2ccccc2o1 (stereo not shown)', 80.1),
  ('CCCn1cc(CNC(=O)c2cccc(S(=O)(=O)N3CCCC3)c2)cn1', 78.5),
  ('CC(OC(=O)c1ccc2c(c1)C(=O)N(c1ccc(Cl)cc1)C2=O)C(=O)c1ccccc1 (stereo not shown)', 111),
  ('Cc1nc(-c2ccc(NCC(O)c3ccco3)nc2)[nH]c(=O)c1C (stereo not shown)', 94.6),
  ('CCn1cc(CN(C)Cc2nccs2)c2cc(C(=O)O)ncc21', 85.3),
  ('O=C(O)CCC(NC(=O)c1ccc(I)cc1)C(=O)O (stereo not shown)', 95.8),
  ('CCc1nc2ccc(C(=O)N3CCNC(=O)C3)cn2c1N(C)C(=O)COc1ccccc1', 107),
  ('CCOc1ccc(-c2cncc(N[C@@H](C)c3ccccc3)n2)cc1', 106),
  ('COCCNC(=O)CN(C)c1cnc2ccccc2n1', 89.2);

----------
The reader will find reported viability at 28.5 h, 10 µM values listed item by item below.
experiment: in vitro; conditions: human, hela cells, % viability
observation.type: viability at 28.5 h, 10 µM (%)

INSERT INTO results (molecule, value_measured) VALUES
  ('CCC(C)(C)c1ccc(S(=O)(=O)N2CCN(CCCC#N)CC2)cc1 [CBK063134]', 93.4),
  ('CCN(CC)C(=O)Cn1ncc2c3oc(C)cc3n(C(C)C)c2c1=O [CBK282848]', 90.7),
  ('Cc1cc(Br)ccc1NC(=O)CSc1nnc(-c2ccccc2O)n1-c1ccccc1 [CBK268086]', 90.7),
  ('CCN(CC)CCNC(=O)/C(=N\O)c1ccccn1 [CBK264538]', 90.6),
  ('CC1CCc2n[nH]c(C(=O)N3CCc4ncc(Cl)cc4C3)c2C1 (stereo not shown) [CBK284874]', 93.6),
  ('COc1cc2c(cc1NC(=O)C/C(C)=N/NC(=O)c1ccccc1F)oc1ccccc12 [CBK262437]', 106),
  ('CN(C)c1ccc(CN(CCO)CCO)cc1 [CBK261921]', 88.3);
